- assay remarks: yeast display, Sf9 membrane polyspecificity reagent, FACS + sequencing; frameworks hold sequencing errors
measured property: polyreactivity (PSR sort gate)

Solved cases (4 shown):
QVQLVESGGGLVQAGGSLRLSCAASGIIFSRYAMGWYRQAPGKERELVAVISSSGGRTYYADSVKGRFTISRDNAKNTVYLQMNSLKPEDTAVYYCAAYTRTGSHLRAYYYWGQGTQVTVSS	high polyreactivity
QVQLVESGGGLLQAGGSLRLSCAASGLIFQNYAMGSYRQAPGKEREFVATITSSGTSTYYADSVKGRFTISRDNAKNTVYLQMNSLKPEDTAVYYCAATGYWWEYDYWGQGTQVTVSS	high polyreactivity
QVQLVESGGGLVQAGGSLRLSCAASGRTFQSNAMGWYRQAPGKERELVAAITNGGNTNYADSVKGRFTISRDNAKNTVYLQMNSLKPEDTAVYYCAADRLYVRYGYWGQGTQVTVSS	low polyreactivity
QVQLVESGGGLVQAGGSLRLSCAASGSTFRFYAMGSYRQAPGKERELVASISRSGGSTYYADSVKGRFTISRDNAKNTVYLQMNSLKPEDTAVYYCAARILYHMDWGQGTQVTVSS	high polyreactivity

Here is the next item to consider.
Quick one: polyreactivity (PSR sort gate) of `QVQLVESGGGLVQAGGSLRLSCAASGSTFPDYVMGRYRQAPGKERELVAAFSSIGGSTYYADSVKGRFTISRDNAKNTVYLQMNCLKPEDTAVYYCAAENSYFYPFDYWGQGTQVTVSS` ?
low polyreactivity

Provenance of the data: the nanobody polyreactivity screen of Harvey et al. (2022)
